molecular target: T1, ER β (UniProt Q92731 1-530, limits assumed); test: peptide probe binding to ERβ, Raloxifene
T1 construct: In vitro; also called estrogen receptor β; ERβ-ERE
T1 sequence (Q92731 whole entry): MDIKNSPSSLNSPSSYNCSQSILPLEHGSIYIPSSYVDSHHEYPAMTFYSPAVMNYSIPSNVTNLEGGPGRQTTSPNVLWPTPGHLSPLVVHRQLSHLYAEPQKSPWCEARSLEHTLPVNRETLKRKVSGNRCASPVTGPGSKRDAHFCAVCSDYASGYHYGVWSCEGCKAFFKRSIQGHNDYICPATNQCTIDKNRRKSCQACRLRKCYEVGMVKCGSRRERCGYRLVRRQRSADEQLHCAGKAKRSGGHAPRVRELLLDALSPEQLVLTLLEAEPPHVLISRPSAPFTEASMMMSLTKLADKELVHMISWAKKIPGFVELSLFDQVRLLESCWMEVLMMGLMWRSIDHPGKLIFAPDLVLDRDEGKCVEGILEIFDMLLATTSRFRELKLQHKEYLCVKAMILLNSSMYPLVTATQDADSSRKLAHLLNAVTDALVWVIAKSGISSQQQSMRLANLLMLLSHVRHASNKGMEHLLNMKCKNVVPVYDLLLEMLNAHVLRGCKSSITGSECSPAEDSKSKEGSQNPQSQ
METRIC: Equiv. (%)

BINDER | DISPLAY UNIT | VALUE MEASURED
SSEACVGRWMLCEQLGVSR (also called β III; B3) [12B-β] | % | -71
SREWEDGFGGRWLSR (also called β I; B1) [4T-β] | % | -53
SSWDMHQFFWEGVSR (also called AB3) [α/β III] | % | 77
SSPGSREWFKDMLSR (also called α/β V; AB5) [14T-β] | % | 0
